Data provenance is patent US11981658B2.

Molecular target: EGFR Del19/C797S (Homo sapiens, UniProt P00533, C797S/DEL746-750)
Sequence (P00533 with tags, fused parts or gaps DEL746-750/C797S): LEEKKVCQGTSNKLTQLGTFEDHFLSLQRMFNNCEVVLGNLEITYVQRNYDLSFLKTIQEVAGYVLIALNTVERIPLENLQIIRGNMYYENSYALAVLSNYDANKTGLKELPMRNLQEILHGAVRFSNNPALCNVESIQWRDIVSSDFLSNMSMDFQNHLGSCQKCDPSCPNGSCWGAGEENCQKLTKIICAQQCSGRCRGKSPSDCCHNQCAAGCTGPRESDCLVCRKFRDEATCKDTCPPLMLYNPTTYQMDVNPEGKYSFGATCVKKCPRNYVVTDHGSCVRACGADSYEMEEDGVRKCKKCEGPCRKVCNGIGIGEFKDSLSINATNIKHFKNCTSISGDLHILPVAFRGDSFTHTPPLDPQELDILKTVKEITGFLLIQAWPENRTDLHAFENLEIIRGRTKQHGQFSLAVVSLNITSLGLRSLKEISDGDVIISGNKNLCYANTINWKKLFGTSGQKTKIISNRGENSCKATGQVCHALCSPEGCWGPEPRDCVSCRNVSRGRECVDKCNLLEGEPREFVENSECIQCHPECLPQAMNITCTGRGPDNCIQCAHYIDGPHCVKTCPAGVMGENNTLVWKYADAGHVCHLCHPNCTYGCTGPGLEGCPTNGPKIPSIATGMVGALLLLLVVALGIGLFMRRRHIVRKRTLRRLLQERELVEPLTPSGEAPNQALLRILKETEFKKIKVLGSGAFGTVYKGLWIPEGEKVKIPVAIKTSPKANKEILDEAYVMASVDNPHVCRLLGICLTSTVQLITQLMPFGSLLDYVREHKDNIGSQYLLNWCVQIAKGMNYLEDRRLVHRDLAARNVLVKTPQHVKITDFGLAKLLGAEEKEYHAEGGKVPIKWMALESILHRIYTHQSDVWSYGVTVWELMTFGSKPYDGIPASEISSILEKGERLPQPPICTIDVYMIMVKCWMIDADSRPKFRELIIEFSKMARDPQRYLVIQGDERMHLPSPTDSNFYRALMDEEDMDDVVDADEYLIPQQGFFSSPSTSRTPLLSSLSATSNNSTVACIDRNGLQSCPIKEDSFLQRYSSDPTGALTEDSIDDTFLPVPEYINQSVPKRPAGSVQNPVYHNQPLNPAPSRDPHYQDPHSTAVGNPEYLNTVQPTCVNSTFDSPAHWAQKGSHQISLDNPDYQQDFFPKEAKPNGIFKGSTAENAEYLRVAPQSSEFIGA
Experiment: Biochemical EGFR kinase inhibition assay (Lance Ultra TR-FRET), double mutant del19/C797S
Settings: Km ATP; read-out: IC50 Del19/C797S (nM) Km ATP
Collected IC50 values appear next to each entry.
PROPERTY: IC50

{"columns": ["MOLECULE", "RESULT"],
 "data": [
  ["CC1(CO)CCN(c2cc(Nc3ccnc(-c4cnn(S(=O)(=O)C5CC5)c4)n3)ncc2C#Cc2cnn(C3CC3)c2)CC1", "2.6 nM"],
  ["CC(=O)N1CCC(n2cc(C#Cc3cnc(Nc4ccnc(-c5cnn(S(=O)(=O)C6CC6)c5)n4)cc3N3CCC(F)CC3)cn2)CC1", "4.6 nM"],
  ["Cn1cc(C#Cc2cnc(Nc3ccnc(-c4cnn(S(=O)(=O)C5CC5)c4)n3)cc2N2CC(C(C)(C)O)C2)cn1", "28 nM"],
  ["CCC(C)Oc1cc(Nc2ccnc(-c3cnn(S(=O)(=O)C4CC4)c3)n2)ncc1C#Cc1cnn(C)c1 (stereo not shown)", "291 nM"],
  ["CC(=O)N1CCC(n2cc(C#Cc3cnc(Nc4ccnc(-c5cnn(S(=O)(=O)C6CC6)c5)n4)cc3N3CCC(C)(CO)CC3)cn2)CC1", "1.8 nM"],
  ["O=S(=O)(C1CC1)n1cc(-c2nccc(Nc3cc(N4CCC(CO)CC4)c(C#Cc4cnn(CCF)c4)cn3)n2)cn1", "3 nM"],
  ["O=S(=O)(C1CC1)n1cc(-c2nccc(Nc3cc(N[C@H]4CCC[C@H](O)C4)c(C#Cc4cnn(C(F)(F)F)c4)cn3)n2)cn1", "66.8 nM"],
  ["CN(C)CCn1cc(C#Cc2cnc(Nc3ccnc(-c4cnn(S(=O)(=O)C5CC5)c4)n3)cc2N2CCC(NCCF)CC2)cn1", "0.8 nM"],
  ["Cn1cc(C#Cc2cnc(Nc3ccnc(-c4cnn(S(=O)(=O)C5CC5)c4)n3)cc2N[C@@H]2CCC[C@@H](O)C2)cn1", "51.9 nM"],
  ["COCCC#Cc1cnc(Nc2ccnc(-c3cnn(S(=O)(=O)C4CC4)c3)n2)cc1NC(C)C", "122 nM"],
  ["Cn1cc(C#Cc2cnc(Nc3ccnc(-c4cnn(S(=O)(=O)C5CC5)c4)n3)cc2N[C@H]2CC[C@@](C)(O)CC2)cn1", "7.7 nM"],
  ["CC1(CO)CCN(c2cc(Nc3ccnc(-c4cnn(S(=O)(=O)C5CC5)c4)n3)ncc2C#Cc2cnn(CC3CC3)c2)CC1", "4.3 nM"],
  ["CN(C)C[C@H]1CC[C@H](COc2cc(Nc3ccnc(-c4cnn(S(=O)(=O)C5CC5)c4)n3)ncc2C#Cc2cnn(C3CC3)c2)CC1", "0.4 nM"]
]}
